# Tested on: PAD
# testMethodNotes: qHTS profiling for inhibitors of Plasmodium falciparum proliferation (AID 504749); also: nearly all actives have a fitted effect of over 60% in size; also: potency is read from the fitted curve at half-maximal effect
# conditionSet: P. falciparum in erythrocytes, SYBR Green DNA, 72 h; series mostly up to 28.7 µM
# Method: NIH National Institute of Allergy and Infectious Diseases [NIAID] NIH Chemical Genomics Center [NCGC] […] Because mature erythrocytes lack DNA, only Plasmodium-derived DNA is detected. NCGC Assay Protocol Summary: The SYBR Green viability assay was adapted from a method described previously (Plouffe et al., 2008). […] The following morning, fluorescence intensity at 485(14) nm excitation and 535(25) nm emission wavelengths was measured on an EnVision (Perkin Elmer) plate reader. […]
Inconclusive results are not listed. The source made the active and inactive calls. Calls follow the shape of the dose curve; as a rule, active = well fitted inhibition curve with a large enough effect; inconclusive = small, poorly fitted or top-dose-only effect; inactive = flat fitted curve, though single readings scatter.
propertyMeasured: Potency

N#CC(c1ccc(Cl)cc1)c1c(Cl)cc(-n2ncc(=O)[nH]c2=O)cc1Cl (stereo not given) | inactive
N#Cc1c(N(CC(=O)O)CC(=O)O)sc(C(=O)O)c1CC(=O)O | inactive
COc1cc2c(cc1OC)CC(=O)N(CCCN(C)C[C@H]1Cc3cc(OC)c(OC)cc31)CC2 | inactive
Clc1ccc(COC(Cn2ccnc2)c2ccc(Cl)cc2Cl)c(Cl)c1 (stereo not given) | 3.55 µM (active)
CS(=O)(=O)c1ccc(C2=C(c3ccccc3)C(=O)OC2)cc1 | inactive

The recorded Potency with PAD for COc1ccnc(CS(=O)c2nc3ccc(OC(F)F)cc3[nH]2)c1OC (stereo not given) was inactive

Potency for PAD with input COc1c(C)c2c(c(O)c1CC=C(C)CCC(=O)OCCN1CCOCC1)C(=O)OC2 equals 11.2 µM (active)

Reading of Potency for Cc1cc2nc3c(=O)[nH]c(=O)nc-3n(CC(O)C(O)C(O)CO)c2cc1C (stereo not given) with PAD: inactive

Form field Potency for item C=C1c2cccc(O)c2C(O)=C2C(=O)[C@@]3(O)C(O)=C(C(N)=O)C(=O)[C@@H](N(C)C)[C@@H]3[C@@H](O)[C@H]12 on PAD: inactive

NS(=O)(=O)c1cc(Cl)c(Cl)c(S(N)(=O)=O)c1 on PAD gives Potency = inactive
